target: T1, biotin-peptide SSMEDYVNFN (human); assay: ELISA biotin-peptide; scFv 10 ug/mL; repI
T1 peptide: Biotin-SSMEDYVNFN
Where no end group is shown, it is not given here. The star is where a group is joined. Biotin = O=C1N[C@H]2[C@H](CS[C@H]2CCCCC(=O)*)N1
measured_attribute: OD450 (OD)
// note: answer is a bare numeric in OD

Some solved cases for reference:
binder	unit_label	OD450
Comparative antibody 2 (Comp-2) scFv, 243LO326 (VH SEQ ID NO: 51 and VL SEQ ID NO: 52 of WO 2022/195028 A2), His-tagged (scFv) scFv: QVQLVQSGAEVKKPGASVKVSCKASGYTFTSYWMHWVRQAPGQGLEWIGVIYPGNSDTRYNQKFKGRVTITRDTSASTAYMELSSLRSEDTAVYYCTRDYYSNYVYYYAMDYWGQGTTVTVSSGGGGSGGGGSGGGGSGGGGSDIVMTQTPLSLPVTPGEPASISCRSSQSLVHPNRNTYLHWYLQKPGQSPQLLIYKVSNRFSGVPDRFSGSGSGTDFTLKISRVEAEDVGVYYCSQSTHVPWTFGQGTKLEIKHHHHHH	OD	0.12
CCR9_HUM2 scFv (humanized anti-CCR9 scFv, SEQ ID NO: 17 with C-terminal 6xHis tag) (scFv) scFv: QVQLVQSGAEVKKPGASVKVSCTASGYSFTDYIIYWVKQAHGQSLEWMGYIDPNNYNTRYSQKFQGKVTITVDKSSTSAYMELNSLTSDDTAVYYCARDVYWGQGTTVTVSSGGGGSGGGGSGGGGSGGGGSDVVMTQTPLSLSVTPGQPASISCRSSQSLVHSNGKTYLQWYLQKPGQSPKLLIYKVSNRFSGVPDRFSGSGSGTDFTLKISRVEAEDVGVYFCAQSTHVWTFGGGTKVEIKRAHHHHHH	OD	2.45
Comparative antibody 3 (Comp-3) scFv, SR_92R (Somovilla-Crespo et al. 2018), His-tagged (scFv) scFv: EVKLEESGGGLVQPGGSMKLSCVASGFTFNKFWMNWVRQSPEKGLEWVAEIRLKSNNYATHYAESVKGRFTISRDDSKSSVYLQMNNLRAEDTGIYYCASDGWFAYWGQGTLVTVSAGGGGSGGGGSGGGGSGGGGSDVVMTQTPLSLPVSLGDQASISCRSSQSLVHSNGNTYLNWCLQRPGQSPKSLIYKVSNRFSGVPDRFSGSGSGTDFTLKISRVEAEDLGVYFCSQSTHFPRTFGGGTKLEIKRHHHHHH	OD	0.15

Okay, now this binder:
Ask: # query: OD450 of entry Comparative antibody 1 (Comp-1) scFv, SEQ ID NO: 10 from WO2023/037125 A1, His-tagged (scFv) scFv: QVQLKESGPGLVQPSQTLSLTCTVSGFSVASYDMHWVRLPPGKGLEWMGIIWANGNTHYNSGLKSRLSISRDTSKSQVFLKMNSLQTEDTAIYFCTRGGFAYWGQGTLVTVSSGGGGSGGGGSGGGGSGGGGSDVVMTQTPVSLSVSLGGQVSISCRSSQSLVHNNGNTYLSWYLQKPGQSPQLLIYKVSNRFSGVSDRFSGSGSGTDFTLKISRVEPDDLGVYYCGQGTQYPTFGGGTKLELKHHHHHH
Result: 0.1
